Reported values of dCas9 with SSAP activity (normalized) for individual entries
test system: gene editing with dCas9; assay: Screen of 322 new SSAP proteins, gene editing activity with dCas9 (Table 5); type: cell-based; conditions: normalized
Hey, just send me the number, nothing else.

MOLECULE	dCas9 with SSAP activity (normalized)
SSAP_254: SEQ ID NO: 423; Pediococcus pentosaceus (protein, listed as Pediococcus pentosaceus) MNDISKVPMKVLVQQDKVQRMLENTLKGKTRQFTTSLINVVNSNQSLADVDQMSVIKSAMVAASLDLPIDQNLGFMWLVPYKGMATPQIGYKGYIQLALRTGQYKKLNTIVVHEGEMKYWNPLTEDFEYDPKGKESDEVIGYLGYLRMINGFEKTVYWTKQNIEDHRMKFSKMSGKAKPSGVWASNYDAMALKTVMRNLLSKWGIMSIEMQQAVVQDEKAPETDVRDVTPTETNSIDSLLAPEPKGEPINDSNEATVPTNAE	−0.675

Let us move to another entry and its dCas9 with SSAP activity (normalized).
Given item SSAP_316: SEQ ID NO: 485; Companilactobacillus kedongensis (protein, listed as Companilactobacillus kedongensis) MKDLARIPVKELVRSDTIKSKFNDVLGKRAPQFISSIVNIVNSNQDLKNVDQTSVISSALVAASLDLPINQSFGYMYLVPYSGKAQPQMGYKGYIQLAQRSGQYKRLNAISVSKEKVPDKMVIFIPDYRMEEAETQIDMYQDHIEDVKAGRVEPTRCGKCDYCKSTAKLGKIVSMDDLID , the value recorded as its dCas9 with SSAP activity (normalized) is −0.279
